Entries and their MIC values follow.
Tested on: S. aureus MSSA1

compound: O=C(C=Cc1ccc(O)cc1)OCC1OC(Oc2c(-c3ccc(O)cc3)oc3cc(O)cc(O)c3c2=O)C(O)C(O)C1O (stereo not drawn) [Compound 6, trans-tiliroside]
unit_label: µg/mL
readout_relation: =
MIC: 64
//
compound: CC[C@H](CC[C@@H](C)[C@H]1CCC2C3CC=C4C[C@@H](O[C@@H]5O[C@H](CO)[C@@H](O)[C@H](O)[C@H]5O)CC[C@]4(C)C3CC[C@@]21C)C(C)C (stereo partly drawn) [Compound 4, sitosterol-3-O-β-D-glucopyranoside]
unit_label: µg/mL
readout_relation: >
MIC: 256
//
compound: C[C@H]1[C@H](C)CC[C@]2(C(=O)O)CC[C@]3(C)C(=CC[C@@H]4[C@@]5(C)CC[C@H](O)C(C)(C)[C@@H]5CC[C@]43C)[C@H]12
unit_label: µg/mL
readout_relation: =
MIC: 128

* * *

Assay read-out MIC; system under study: S. aureus MRSA3.
parameter_measured: MIC

compound: O=C(C=Cc1ccc(O)cc1)OCC1OC(Oc2c(-c3ccc(O)cc3)oc3cc(O)cc(O)c3c2=O)C(O)C(O)C1O (stereo not drawn) [Compound 6, trans-tiliroside]
observed: 64 µg/mL

compound: O=c1cc(-c2ccc(O)cc2)oc2c([C@@H]3O[C@H](CO)[C@@H](O)[C@H](O)[C@H]3O)c(O)cc(O)c12
observed: 64 µg/mL

compound: O=c1oc2c(O)c(O)cc3c(=O)oc4c(O)c(O)cc1c4c23
observed: 32 µg/mL

compound: COc1cc2c(=O)oc3c(OC)c(O)cc4c(=O)oc(c1O)c2c34
observed: 16 µg/mL

compound: CC[C@H](CC[C@@H](C)[C@H]1CCC2C3CC=C4C[C@@H](O[C@@H]5O[C@H](CO)[C@@H](O)[C@H](O)[C@H]5O)CC[C@]4(C)C3CC[C@@]21C)C(C)C (stereo partly drawn) [Compound 4, sitosterol-3-O-β-D-glucopyranoside]
observed: > 256 µg/mL

compound: COC(=O)c1cc(O)c(O)c(O)c1-c1c(C(=O)OC)cc(O)c(O)c1O
observed: 64 µg/mL

compound: O=C(O)c1cn(C2CC2)c2cc(N3CCNCC3)c(F)cc2c1=O [Ciprofloxacin, reference compound]
observed: 16 µg/mL

compound: C=C(C)[C@@H]1CC[C@]2(C)CC[C@]3(C)[C@H](CC[C@@H]4[C@@]5(C)CC[C@H](O)C(C)(C)[C@@H]5CC[C@]43C)[C@@H]12
observed: > 256 µg/mL

compound: C[C@H]1[C@H](C)CC[C@]2(C(=O)O)CC[C@]3(C)C(=CC[C@@H]4[C@@]5(C)CC[C@H](O)C(C)(C)[C@@H]5CC[C@]43C)[C@H]12
observed: 128 µg/mL

* * *

Tested on: C. albicans ATCC10231
measurement_description: Broth microdilution antimicrobial assay (MIC/MMC)
Type: cell-based, Candida albicans
reported_conditions: no growth after sub-culturing
Entries and their MMC values follow.

compound: CC[C@H](CC[C@@H](C)[C@H]1CCC2C3CC=C4C[C@@H](O[C@@H]5O[C@H](CO)[C@@H](O)[C@H](O)[C@H]5O)CC[C@]4(C)C3CC[C@@]21C)C(C)C (stereo partly drawn) [Compound 4, sitosterol-3-O-β-D-glucopyranoside]
target_of_assay: C. albicans ATCC10231
readout_relation: >
MMC (µg/mL): 256
//
compound: C[C@H]1[C@H](C)CC[C@]2(C(=O)O)CC[C@]3(C)C(=CC[C@@H]4[C@@]5(C)CC[C@H](O)C(C)(C)[C@@H]5CC[C@]43C)[C@H]12 [Compound 3, ursolic acid]
target_of_assay: C. albicans ATCC10231
readout_relation: >
MMC (µg/mL): 256
//
compound: O=C(C=Cc1ccc(O)cc1)OCC1OC(Oc2c(-c3ccc(O)cc3)oc3cc(O)cc(O)c3c2=O)C(O)C(O)C1O (stereo not drawn) [Compound 6, trans-tiliroside]
target_of_assay: C. albicans ATCC10231
readout_relation: =
MMC (µg/mL): 64
//
compound: C[C@@H]1[C@H](O)[C@@H](C)/C=C/C=C/CC/C=C/C=C/C=C/C=C/C(O[C@H]2O[C@H](C)[C@@H](O)[C@H](N)[C@@H]2O)CC2O[C@](O)(CC(O)C(O)CCC(O)CC(O)CC(O)CC(=O)O[C@H]1C)CC(O)C2C(=O)O (some centres unmarked) [nystatin, reference compound]
target_of_assay: C. albicans ATCC10231
readout_relation: =
MMC (µg/mL): 2
//
compound: O=c1cc(-c2ccc(O)cc2)oc2c([C@@H]3O[C@H](CO)[C@@H](O)[C@H](O)[C@H]3O)c(O)cc(O)c12 [Compound 5, vitexin]
target_of_assay: C. albicans ATCC10231
readout_relation: =
MMC (µg/mL): 256
//
compound: O=c1oc2c(O)c(O)cc3c(=O)oc4c(O)c(O)cc1c4c23 [Compound 10, ellagic acid]
target_of_assay: C. albicans ATCC10231
readout_relation: =
MMC (µg/mL): 16
//
compound: COC(=O)c1cc(O)c(O)c(O)c1-c1c(C(=O)OC)cc(O)c(O)c1O [Compound 8]
target_of_assay: C. albicans ATCC10231
readout_relation: >
MMC (µg/mL): 256
//
compound: COc1cc2c(=O)oc3c(OC)c(O)cc4c(=O)oc(c1O)c2c34 [Compound 7, 3,4′-di-O-methylellagic acid]
target_of_assay: C. albicans ATCC10231
readout_relation: =
MMC (µg/mL): 64

* * *

Tested on: C. tropicalis PK233
measurement_description: Broth microdilution antimicrobial assay (MIC/MMC)
Assay type: cell-based, Candida tropicalis
reported_conditions: Candida tropicalis, 37 °C, 48 h, read-out: MIC
# if measured MIC < 60 µg/mL: Criterion met  # else: Criterion not met

molecule: O=C(C=Cc1ccc(O)cc1)OCC1OC(Oc2c(-c3ccc(O)cc3)oc3cc(O)cc(O)c3c2=O)C(O)C(O)C1O (stereo not drawn) [Compound 6, trans-tiliroside]
discrete_label: Criterion not met
--
molecule: COc1cc2c(=O)oc3c(OC)c(O)cc4c(=O)oc(c1O)c2c34
discrete_label: Criterion met
--
molecule: O=c1oc2c(O)c(O)cc3c(=O)oc4c(O)c(O)cc1c4c23
discrete_label: Criterion met
--
molecule: COC(=O)c1cc(O)c(O)c(O)c1-c1c(C(=O)OC)cc(O)c(O)c1O
discrete_label: Criterion met
--
molecule: C=C(C)[C@@H]1CC[C@]2(C)CC[C@]3(C)[C@H](CC[C@@H]4[C@@]5(C)CC[C@H](O)C(C)(C)[C@@H]5CC[C@]43C)[C@@H]12
discrete_label: Criterion not met
--
molecule: O=c1cc(-c2ccc(O)cc2)oc2c([C@@H]3O[C@H](CO)[C@@H](O)[C@H](O)[C@H]3O)c(O)cc(O)c12
discrete_label: Criterion not met
--
molecule: CC[C@H](CC[C@@H](C)[C@H]1CCC2C3CC=C4C[C@@H](O[C@@H]5O[C@H](CO)[C@@H](O)[C@H](O)[C@H]5O)CC[C@]4(C)C3CC[C@@]21C)C(C)C (stereo partly drawn) [Compound 4, sitosterol-3-O-β-D-glucopyranoside]
discrete_label: Criterion not met
--
molecule: C[C@H]1[C@H](C)CC[C@]2(C(=O)O)CC[C@]3(C)C(=CC[C@@H]4[C@@]5(C)CC[C@H](O)C(C)(C)[C@@H]5CC[C@]43C)[C@H]12
discrete_label: Criterion not met

* * *

Entries and their MIC values follow.
Tested on: S. aureus MRSA4

molecule: C=C(C)[C@@H]1CC[C@]2(C)CC[C@]3(C)[C@H](CC[C@@H]4[C@@]5(C)CC[C@H](O)C(C)(C)[C@@H]5CC[C@]43C)[C@@H]12
unit_label: µg/mL
readout_relation: >
MIC: 256
--
molecule: COC(=O)c1cc(O)c(O)c(O)c1-c1c(C(=O)OC)cc(O)c(O)c1O
unit_label: µg/mL
readout_relation: =
MIC: 128
--
molecule: O=C(C=Cc1ccc(O)cc1)OCC1OC(Oc2c(-c3ccc(O)cc3)oc3cc(O)cc(O)c3c2=O)C(O)C(O)C1O (stereo not drawn) [Compound 6, trans-tiliroside]
unit_label: µg/mL
readout_relation: =
MIC: 128
--
molecule: C[C@H]1[C@H](C)CC[C@]2(C(=O)O)CC[C@]3(C)C(=CC[C@@H]4[C@@]5(C)CC[C@H](O)C(C)(C)[C@@H]5CC[C@]43C)[C@H]12
unit_label: µg/mL
readout_relation: =
MIC: 128
--
molecule: CC[C@H](CC[C@@H](C)[C@H]1CCC2C3CC=C4C[C@@H](O[C@@H]5O[C@H](CO)[C@@H](O)[C@H](O)[C@H]5O)CC[C@]4(C)C3CC[C@@]21C)C(C)C (stereo partly drawn) [Compound 4, sitosterol-3-O-β-D-glucopyranoside]
unit_label: µg/mL
readout_relation: >
MIC: 256

Data provenance: paper PMC5956543
